assay: Cytotoxicity MTS assay, HepG2; format: cell-based; details: 24 h exposure, in mM
quantity: IC50 at 24 h

Give recorded IC50 at 24 h. CCN(CC)Cc1cc(Nc2ccnc3cc(Cl)ccc23)ccc1O [AMQ, Amodiaquine, reference compound]
≥ 1 mM

====

Catalogue of compounds with associated IC50 at 24 h
assay: Cytotoxicity MTS assay, HepG2; assay type: cell-based; conditions: human, HepG2 cells, 24 h exposure, IC50 ± SE

These recorded examples may help you get a feel for the data.
| smiles-str | IC50 at 24 h |
| --- | --- |
| CCN(CC)Cc1cc(Nc2ccnc3ccc(C#N)cc23)ccc1O | 276 µM |
| CCN(CC)Cc1cc(Nc2cc(C(F)(F)F)nc3ccccc23)ccc1O | 232 µM |

Continue with the compound presented below.
Return the recorded IC50 at 24 h value; entry: `CCN(CC)Cc1cc(Nc2ccnc3cc(OC)ccc23)ccc1O`
100 µM
